- TEST PROTOCOL: chemical genetic growth profiling, strain panel (AID 1159580);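 also: tested at 20 µM; growth read once vehicle control cultures reached saturation at 30 °C; 1 = growth at the plate median or of vehicle wells; lower values mean less growth of the strain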
- DETAILS: S. cerevisiae deletion strains, growth OD, locus YNL322C, strain KRE1 (second series), hits give low values
Screen size: about 5,500 compounds; about 2,000 (36%) were called active. About 18% were inconclusive and are not listed. This is one part of the list.
ENDPOINT LABEL: normalized growth

Field: example entries. Status: answers known.
>>> data_value("O=C(O)CC(O)(CC(=O)O)C(=O)O")
"1 (inactive)"
>>> data_value("CCCCCCCCCCCC[C@H](C(=O)O)[C@@H](C)C(=O)O")
"0.968 (inactive)"
>>> data_value("Nc1ccc(S(=O)(=O)Nc2cnc3ccccc3n2)cc1")
"0.997 (inactive)"
>>> data_value("CC1(C)CC[C@@]2(C(=O)O)C(C1)C1=CCC3[C@@]4(C)CC[C@H](O)C(C)(C)C4CC[C@@]3(C)[C@]1(C)C[C@@H]2O (stereo partly specified)")
"0.998 (inactive)"
>>> data_value("NNC(=O)c1ccncc1")
"1.02 (inactive)"

Note to self: normalized growth recorded for C[C@@H]1CC[C@]2(C(=O)O)CC[C@]3(C)C(=CCC4[C@@]5(C)CC[C@H](O)C(C)(C)C5CC[C@]43C)C2[C@H]1C (stereo partly specified) was 0.979 (inactive)

Memo: C#C[C@]1(O)CCC2C3CCC4=C(CCC(=O)C4)C3CC[C@@]21C (stereo partly specified) , reported normalized growth: 0.97 (inactive)

The value of normalized growth measured for the compound CCN1C[C@]2(OC(=O)c3ccccc3NC(C)=O)CCC(OC)[C@]34C1[C@H](CC23)[C@@]1(O)CC(OC)[C@H]2CC4C1(O)[C@H]2OC (stereo partly specified) turned out to be 0.972 (inactive)

Please fill in: normalized growth reported for `CC1=NS(=O)(=O)c2cc(Cl)ccc2N1` = 0.966 (inactive)

###

- TEST PROTOCOL: chemical genetic growth profiling, strain panel (AID 1159580);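 also: tested at 20 µM; growth read once vehicle control cultures reached saturation at 30 °C; 1 = growth at the plate median or of vehicle wells; lower values mean less growth of the strain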
- DETAILS: S. cerevisiae deletion strains, growth OD, locus YGL086W, strain mad1, hits give low values
Screen size: about 5,500 compounds; about 2,000 (36%) were called active. Not shown: some 18% with an inconclusive outcome. Some of the results follow.
ENDPOINT LABEL: normalized growth
Field format: numeric only.

Some compounds with recorded normalized growth:
>>> data_value("COC(=O)Nc1nc2ccc(C(=O)c3ccccc3)cc2[nH]1")
0.999
>>> data_value("NC(Cc1c[nH]c2ccccc12)C(=O)O (stereo unspecified)")
1.01
>>> data_value("COC(=O)Nc1nc2ccc(Sc3ccccc3)cc2[nH]1")
0.955
>>> data_value("CO[C@@]12[C@@H]3NC3CN1C1=C(C(=O)C(N)=C(C)C1=O)[C@@H]2COC(N)=O (stereo partly specified)")
0.963

Form field normalized growth, entry Nc1ccccc1C(=O)CC(N)C(=O)O (stereo unspecified) : 0.954

Measured normalized growth, COc1cccc(OC)c1OCCNCC1COc2ccccc2O1 (stereo unspecified) : 0.974

###

- TEST PROTOCOL: chemical genetic growth profiling, strain panel (AID 1159580);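 also: tested at 20 µM; growth read once vehicle control cultures reached saturation at 30 °C; 1 = growth at the plate median or of vehicle wells; lower values mean less growth of the strain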
- DETAILS: S. cerevisiae deletion strains, growth OD, locus YEL003W, strain gim4
Out of some 5,500 compounds screened, about 2,000 (36%) were called active. Another 18% or so got no clear call; they are omitted. Rule as the data show it: active = normalized growth mostly below about 0.91 (no sharp cut-off); inconclusive = no clear call, values can overlap the other calls; inactive = mostly above about 0.92. Some of the results follow.
Reply using exactly one outcome from active, inactive

Below, 5 compounds whose answers are already recorded.
>>> label("C[C@@H]1CC[C@H]2[C@@H](C)C(O)O[C@@H]3O[C@@]4(C)CC[C@@H]1[C@]32OO4 (stereo partly specified)")
"active"
>>> label("CNC(=O)O/N=C\\C(C)(C)SC")
"inactive"
>>> label("O=c1ccc2ccc(O)cc2o1")
"inactive"
>>> label("Nc1ccc(S(=O)(=O)c2ccc(N)cc2)cc1")
"inactive"
>>> label("Cc1ccnc(NS(=O)(=O)c2ccc(N)cc2)n1")
"inactive"

Hello, I am checking results. What call was entered for `CCOP(=S)(OCC)Oc1nc(Cl)c(Cl)cc1Cl` ?
inactive
